# Tested on: TF-mediated platelet activation
# TEST: In vitro platelet activation in whole blood
# Format: cell-based, human
# DETAILS: read-out: EC50 inhibition of platelet activation, Human blood—TF; 20% whole blood; mean ± SD
QUANTITY: EC50
Note: a bare number is incomplete; add the unit.

Incoming: Which EC50 value belongs to `[H]/N=C(/N)c1ccc(NCc2nc3cc(C(=O)N(CCC(=O)O)c4ccccn4)ccc3n2C)cc1` ?
Outgoing: 23 nM

====

# Tested on: thrombin generation
# TEST: Thrombin generation assay
# Assay type: biochemical
# DETAILS: read-out: Tmax EC2x (concentration of inhibitor required to double the time at which Cmax occurs); 70% human platelet-poor plasma; mean ± SD
Assignment: determine reported Cmax for the given molecules.
Answers are plain numbers, in nM.

Check out these entries, answers already filled in.
MOLECULE	VAL
[H]/N=C(/N)c1ccc(NCc2nc3cc(C(=O)N(CCC(=O)O)c4ccccn4)ccc3n2C)cc1 [Dabigatran, dabigatran]	240
O=C(NC[C@H]1CN(c2ccc(N3CCOCC3=O)cc2)C(=O)O1)c1ccc(Cl)s1 [Rivaroxaban, rivaroxaban]	100
COc1ccc(-n2nc(C(N)=O)c3c2C(=O)N(c2ccc(N4CCCCC4=O)cc2)CC3)cc1 [Apixaban, apixaban]	70

Now for the molecule whose Cmax we want.
Incoming: Name the recorded Cmax for CC1CNc2c(cccc2S(=O)(=O)N[C@@H](CCCNC(=N)N)C(=O)N2CC[C@@H](C)C[C@@H]2C(=O)O)C1 (stereo partly shown) [Argatroban, argatroban] .
Outgoing: 454
